test_target: HIV-1 Env of isolate MGRM-G-017 (subtype G), on pseudovirus (HIV-1)
protocol_summary: cell-based or functional assay
result_type: IC50 (µg/mL), neutralization of pseudovirus
Give the value in µg/mL but do not write µg/mL after it.

>  <binder>
PGT-137 (antibody, V domains shown) VH: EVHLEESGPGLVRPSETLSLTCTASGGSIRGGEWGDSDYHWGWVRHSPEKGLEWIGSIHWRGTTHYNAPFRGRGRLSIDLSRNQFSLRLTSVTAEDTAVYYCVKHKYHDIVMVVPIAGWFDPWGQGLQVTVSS VL: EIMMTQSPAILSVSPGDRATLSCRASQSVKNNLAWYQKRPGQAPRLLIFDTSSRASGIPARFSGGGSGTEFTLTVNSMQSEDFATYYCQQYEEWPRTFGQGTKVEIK

>  <reported_value>
34.9

$$$$

--- query ---
Task: Which IC50 (µg/mL), neutralization of pseudovirus value is on record for PGT-123 (antibody, V domains shown) VH: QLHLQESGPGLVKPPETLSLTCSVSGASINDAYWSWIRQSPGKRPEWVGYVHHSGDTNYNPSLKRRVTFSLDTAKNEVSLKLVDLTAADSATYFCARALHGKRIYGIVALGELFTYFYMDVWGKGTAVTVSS VL: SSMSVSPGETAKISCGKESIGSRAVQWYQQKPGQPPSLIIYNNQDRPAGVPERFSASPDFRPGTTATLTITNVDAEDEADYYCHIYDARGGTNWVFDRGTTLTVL ?
Output: 0.026
